- METHOD NOTES: Pharmacokinetics of LN002 in rat plasma after single intravenous injection or oral gavage
- Assay type: in vivo, Sprague–Dawley (SD) rats
- RUN CONDITIONS: both sexes, Sprague-Dawley, rat; plasma, oral 200 mg/kg, rats, n = 6
EXPERIMENTAL READOUT: Tmax (h)
Record the value in h, omitting the unit from your answer.

Tmax recorded for this compound, N#C/C(=C\c1c[nH]nc1-c1ccccc1)c1nn(-c2ccccc2)c(N)c1C#N , is 1

* * *

- METHOD NOTES: Pharmacokinetics of LN002 in rat plasma after single intravenous injection or oral gavage
- Assay type: in vivo, Sprague–Dawley (SD) rats
- RUN CONDITIONS: both sexes, Sprague-Dawley, rat, plasma, po, 400 mg/kg, plasma, oral 400 mg/kg, rats, n = 6, mean ± SD; read-out: Cl (Cl/F in text) (converted)
EXPERIMENTAL READOUT: CL/F (mL/min/kg)
Your answer should be a plain number; it is taken to be in mL/min/kg.

Field CL/F (entry N#C/C(=C\c1c[nH]nc1-c1ccccc1)c1nn(-c2ccccc2)c(N)c1C#N ) reads 650

* * *

- METHOD NOTES: Tissue distribution of LN002 after oral administration in rats
- Assay type: in vivo, Sprague–Dawley (SD) rats
- RUN CONDITIONS: both sexes, Sprague-Dawley, rat; brain, oral 200 mg/kg, SD rats, n = 6, mean ± SD
EXPERIMENTAL READOUT: half-life (min)
Your answer should be a plain number; it is taken to be in min.

Value of measured half-life for the entry N#C/C(=C\c1c[nH]nc1-c1ccccc1)c1nn(-c2ccccc2)c(N)c1C#N : 312

* * *

- METHOD NOTES: Pharmacokinetics of LN002 in rat plasma after single intravenous injection or oral gavage
- Type: in vivo, Sprague–Dawley (SD) rats
- RUN CONDITIONS: both sexes, Sprague-Dawley, rat, plasma, po, 200 mg/kg, oral 200 mg/kg, rats, n = 6, mean ± SD
EXPERIMENTAL READOUT: Cmax (ng/mL)
// units = ng/mL; emit number, no label

Value of measured Cmax for the entry N#C/C(=C\c1c[nH]nc1-c1ccccc1)c1nn(-c2ccccc2)c(N)c1C#N : 1670

* * *

- METHOD NOTES: Tissue distribution of LN002 after oral administration in rats
- Format: in vivo, Sprague–Dawley (SD) rats
- RUN CONDITIONS: both sexes, Sprague-Dawley, rat; spleen, oral 200 mg/kg, SD rats, n = 6, mean ± SD
EXPERIMENTAL READOUT: half-life (h)
Reply with just the number (in h).

Lab book: half-life of N#C/C(=C\c1c[nH]nc1-c1ccccc1)c1nn(-c2ccccc2)c(N)c1C#N noted as 5.8

* * *

- METHOD NOTES: Pharmacokinetics of LN002 in rat plasma after single intravenous injection or oral gavage
- Format: in vivo, Sprague–Dawley (SD) rats
- RUN CONDITIONS: both sexes, Sprague-Dawley, rat, plasma, po, 100 mg/kg, oral 100 mg/kg, rats, n = 6, mean ± SD
EXPERIMENTAL READOUT: half-life (h)
Number only, in h; omit the unit.

So for N#C/C(=C\c1c[nH]nc1-c1ccccc1)c1nn(-c2ccccc2)c(N)c1C#N , the logged half-life turned out to be 18

* * *

- METHOD NOTES: Tissue distribution of LN002 after oral administration in rats
- Type: in vivo, Sprague–Dawley (SD) rats
- RUN CONDITIONS: both sexes, Sprague-Dawley, rat; kidney, oral 200 mg/kg, SD rats, n = 6
- Experimental: Thirty SD rats (15 for each sex) were randomly and equally assigned to 5 groups (half male and half female). The rats in each group were euthanized with pentobarbital sodium (a dose of 180 mg/kg) at five different time points: 0.5, 2, 6, 12 and 24 h after oral administration at 200 mg/kg LN002. […] A Shimadzu LC-20A system (Shimadzu Technologies, Kyoto, Japan) equipped with a LabSolutions system (version 5.1) system was used for HPLC analysis. […] The analytes were detected using a UV detector at 333 nm. […]
EXPERIMENTAL READOUT: Tmax (min)
Lab book: enter the figure in min, no units written.

Reported Tmax ( N#C/C(=C\c1c[nH]nc1-c1ccccc1)c1nn(-c2ccccc2)c(N)c1C#N ) = 30

* * *

- METHOD NOTES: Tissue distribution of LN002 after oral administration in rats
- Type: in vivo, Sprague–Dawley (SD) rats
- RUN CONDITIONS: both sexes, Sprague-Dawley, rat; spleen, oral 200 mg/kg, SD rats, n = 6, mean ± SD
EXPERIMENTAL READOUT: Cmax (ng/g)
Write the value in ng/g as a bare number.

Query N#C/C(=C\c1c[nH]nc1-c1ccccc1)c1nn(-c2ccccc2)c(N)c1C#N yields Cmax of 645

* * *

- METHOD NOTES: Pharmacokinetics of LN002 in rat plasma after single intravenous injection or oral gavage
- Type: in vivo, Sprague–Dawley (SD) rats
- RUN CONDITIONS: both sexes, Sprague-Dawley, rat, plasma, po, 200 mg/kg, plasma, oral 200 mg/kg, rats, n = 6, mean ± SD; read-out: AUC0–24 h
EXPERIMENTAL READOUT: AUC(0-t) (ng·h/mL)
Field format: number, assumed ng·h/mL, no unit text.

Record N#C/C(=C\c1c[nH]nc1-c1ccccc1)c1nn(-c2ccccc2)c(N)c1C#N [LN002] . Reported AUC(0-t): 4070

* * *

- METHOD NOTES: Tissue distribution of LN002 after oral administration in rats
- Format: in vivo, Sprague–Dawley (SD) rats
- RUN CONDITIONS: both sexes, Sprague-Dawley, rat; lung, oral 200 mg/kg, SD rats, n = 6, mean ± SD
EXPERIMENTAL READOUT: half-life (h)
Answer format: numeric, h implied, no suffix.

Record N#C/C(=C\c1c[nH]nc1-c1ccccc1)c1nn(-c2ccccc2)c(N)c1C#N , field half-life: 5.43

* * *

- METHOD NOTES: Tissue distribution of LN002 after oral administration in rats
- Type: in vivo, Sprague–Dawley (SD) rats
- RUN CONDITIONS: both sexes, Sprague-Dawley, rat; intestine, oral 200 mg/kg, SD rats, n = 6, mean ± SD
EXPERIMENTAL READOUT: Tmax (h)
The reply should be a number in h, with the unit left off.

Tmax measured on N#C/C(=C\c1c[nH]nc1-c1ccccc1)c1nn(-c2ccccc2)c(N)c1C#N = 2.67

* * *

- METHOD NOTES: Tissue distribution of LN002 after oral administration in rats
- Type: in vivo, Sprague–Dawley (SD) rats
- RUN CONDITIONS: both sexes, Sprague-Dawley, rat; lung, oral 200 mg/kg, SD rats, n = 6, mean ± SD
EXPERIMENTAL READOUT: Tmax (h)
Quick reminder: number only, in h, skip the unit.

For this compound ( N#C/C(=C\c1c[nH]nc1-c1ccccc1)c1nn(-c2ccccc2)c(N)c1C#N [LN002] ), measured Tmax is 2.09

* * *

- METHOD NOTES: Tissue distribution of LN002 after oral administration in rats
- Type: in vivo, Sprague–Dawley (SD) rats
- RUN CONDITIONS: both sexes, Sprague-Dawley, rat; intestinal contents, oral 200 mg/kg, SD rats, n = 6, mean ± SD
EXPERIMENTAL READOUT: Tmax (h)
Numbers only here, please. The scale is h.

// N#C/C(=C\c1c[nH]nc1-c1ccccc1)c1nn(-c2ccccc2)c(N)c1C#N : Tmax value = 3.33

All figures here come from paper PMC11325084.
